- measured.target: T1, cynomolgus monkey TNFR2 extracellular domain with C-terminal 10×His tag (cynomolgus monkey, UniProt P20333 23-257 (human entry))
- T1 construct: also called cynoTNFR2-His; His-tag-cynoTNFR2
- T1 chain: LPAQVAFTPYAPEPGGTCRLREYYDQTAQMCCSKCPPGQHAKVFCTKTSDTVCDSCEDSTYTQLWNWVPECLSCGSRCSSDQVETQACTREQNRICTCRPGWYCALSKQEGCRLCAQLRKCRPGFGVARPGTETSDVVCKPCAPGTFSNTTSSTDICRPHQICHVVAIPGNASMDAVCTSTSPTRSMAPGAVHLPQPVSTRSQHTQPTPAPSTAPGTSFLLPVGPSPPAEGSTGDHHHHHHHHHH
- assay.details: BLI (Octet RED96), antibody captured on AHC biosensor, His-tagged TNFR2 in solution, 1:1 model
- Procedure: The following kinetic assay was performed using anti-human IgG Fc capture (AHC) biosensors (ForteBio) in kinetics buffer (PBS, 0.1% Tween-20 and 1% bovine serum albumin): (a) antibody (2 μg/mL) for 300 sec, (b) baseline for 120 sec, (c) association with His-tag-huTNFR2 (2.5, 0.5 and 0 μg/mL) and His-tag-cynoTNFR2 (2.5, 0.5 and 0 μg/mL) for 420 sec and (d) dissociation for 1200 sec. […]
result.type: koff (s⁻¹)
Supply the numeric figure in s⁻¹, leaving out any unit text.

Task: Form field: reported koff of 15H10 chimeric anti-TNFR2 antibody (antibody, V domains shown, Chimeric: mouse variable domains with human constant regions, made as recombinant IgG1) VH: DVQLQESGPGLVTPSQSLSLTCSVTGYSITSGYYWNWIRQFPGNKLEWMGYITYDGNNNYNPSLKSRFSITRDTSKNQFFLKLNSVTSEDTATYYCARGDYGDSAMDYWGQGTSVTVSS VL: EIVLTQSPAITAASLGQKVTITCSASSGVNYMHWYQQKSGTSPKPWIYEISKLASGVPARFSGSGSGTSYSLTISSMEAEDAAIYYCQQWNYPLITFGAGTKVELK
Output: 0.000368

Task: // returns reported koff for input 29G3 chimeric anti-TNFR2 antibody (antibody, V domains shown, Chimeric: mouse variable domains with human constant regions, made as recombinant IgG1) VH: EVMLVESGGASVKPGGSLKLSCAASGFTFSNFAMSWVRQTPEKRLEWVATIRSGDNYSYYSDNVKGRFTISRDNARNTLYLQMSSLRSKDTSIYYCARNWDKVFDYWGQGTTLTVSS VL: DIVLTQSPASLAVSLGQRATISCRASESVDSYGYSFMHWYQQKPGQPPKLLIYRASNLKSGIPARFSGSGSRTDFTLTINPVEADDVATYYCQQSNEDHTFGGGTKLEIK
Output: 0.002

Task: Need koff of 51B5 chimeric anti-TNFR2 antibody (antibody, V domains shown, Chimeric: mouse variable domains with human constant regions, made as recombinant IgG1) VH: QVQLQQSGAELARPGTSVKLSCKASGYTFTDDYIDWVKQRTGQGLEWIGEIYPGSGNTYYNEKFKGKATLTADKSSSTAYMQLSSLTSEDSAVYFCARSQVYGKIAMDHWGQGTSVTVSS VL: DIVLTQSPASLAVSLGQRATISCRASESVDNSGNSFMHWYQQIPGQPPKLLIYRASNLESGIPARFSGSGARTDFTLTIDPVGAVDVATYYCQQSKEDPYTFGGGTKLEIE , thanks.
Output: 0.00065

Task: Name the reported koff value associated with the binder 85G8.4 chimeric anti-TNFR2 antibody (antibody, V domains shown, Chimeric: mouse variable domains with human constant regions, made as recombinant IgG1) VH: EVQLQQSGPELVKPGASVKISCKTSGYTFTDFNMDWVKQSHGKSLEWIGYINPNNGDAAYNQKFKSKATLTVDKSSNTAYMELHSLTSDDSAVYYCARWGWAFAYWGQGTLVTVSA VL: DIVMTQSHKIMSTSVGDRVSITCKASQDVKTAVAWYQQKPGQSPKLLIYATSYRYTGVPDRFTGSGSGTDFTFTISTVQAEDLAVYYCQQHYSIPYTFGGGTKLEIK
Output: 0.000534
